These data points were gathered from PubChem BioAssay (NCI).

Assign TGI to each entry below.
Tested on: DMS 114 small cell lung
Experiment: NCI tumour cell line growth inhibition, 48 h
Numbers only, in µM.

[
  {
    "input-smiles": "Cn1cnc([N+](=O)[O-])c1Sc1nc2ccccc2[nH]1",
    "test-readout": "TGI",
    "unit-info": "µM",
    "measurement": 21.7
  },
  {
    "input-smiles": "Cn1c2ccccc2c2cc(-c3ccccc3)c3c(c21)C(=O)c1ccccc1C3=O",
    "test-readout": "TGI",
    "unit-info": "µM",
    "measurement": 33.6
  }
]

Now take the following compound into account.
## Task # get_value(readout= TGI, system= DMS 114 small cell lung) for CCOC(=O)C(=C=C=C(c1ccccc1)c1ccccc1)C(=O)OCC
## Result 40.1

====

System: OVCAR-3 ovarian
Assay: NCI tumour cell line growth inhibition, 48 h
test-readout: GI50

Sample answers from the record:
[
  {
    "molecule": "OCCCCCNCc1cc2cc3c(cc2c2cc(OCc4ccccc4)ccc12)OCO3",
    "test-readout": "GI50",
    "measurement": "1.68 µM"
  },
  {
    "molecule": "Cc1cccc(NC(=O)Cn2cnc3sc(C(=O)OC(C)C)c(C)c3c2=O)c1",
    "test-readout": "GI50",
    "measurement": "33.4 µM"
  },
  {
    "molecule": "COc1cccc(-c2nc(-c3ccc(NC(=O)C(C)C)cc3)[nH]c2-c2ccnc(Br)c2)c1",
    "test-readout": "GI50",
    "measurement": "3.38 µM"
  },
  {
    "molecule": "OC(c1cc(-c2ccc(C(F)(F)F)cc2)nc(-c2ccc(C(F)(F)F)cc2)c1)C1CCCCN1 (stereo not given)",
    "test-readout": "GI50",
    "measurement": "1.78 µM"
  }
]

Now take the following molecule into account.
## Task Fill blank: measured GI50 of the molecule CC[C@H](Nc1ncnc2nc[nH]c12)c1oc2ccccc2c(=O)c1-c1cccc(F)c1 is ____.
## Result 18.3 µM

====

System: HCC-2998 colon
Experiment: NCI tumour cell line growth inhibition, 48 h
Assign TGI to each entry below.
Give bare numbers, in µM.

Sample answers from the record:
[
  {
    "molecule": "CCCC(=O)OC1CC(n2cc(F)c(=O)[nH]c2=O)OC1COP(=O)(OCC(Cl)(Cl)Cl)OCC(Cl)(Cl)Cl (stereo unspecified)",
    "measurement": 3.34
  },
  {
    "molecule": "CCOC(=O)C(=C=C=C(c1ccccc1)c1ccccc1)C(=O)OCC",
    "measurement": 61.4
  },
  {
    "molecule": "COc1cc2c3c(n(C)c(=O)c2cc1OC)-c1cc2c(cc1/C3=C\\CCCN)OCO2",
    "measurement": 32.3
  },
  {
    "molecule": "CC1=NN(c2cccc(Cl)c2)C2(SCC(=O)N2c2nc3ccccc3s2)/C1=C\\c1ccccc1O (stereo unspecified)",
    "measurement": 42
  },
  {
    "molecule": "COc1cccc2c1OC1(C=C2)Oc2ccccc2C(=O)N1C (stereo unspecified)",
    "measurement": 77.8
  }
]

Dear colleague, could you please provide TGI for the molecules listed below?
1. Cn1cnc([N+](=O)[O-])c1S(=O)(=O)Oc1cccc2ccccc12
2. O=C1c2cc3c(cc2-c2c1c1ccc(F)cc1c(=O)n2CCCNCCO)OCO3
3. Nc1ncnc2c1nnn2C1OC(CO)C(O)C1O (stereo unspecified)
4. CCOC(=O)c1nc2c(nc1C(=O)OCC)C(=O)c1ccccc1C2=O
5. CC(C)(C)OC(=O)N[C@H]1CC2(C=C(Cl)C(=O)C(Cl)=C2)OC1=O

## Result
[26.6, 0.272, 5.32, 2.97, 31.8]

Dear colleague, could you please provide TGI for the molecules listed below?
1. O=C1OC(O)[C@@H]2[C@H]1[C@H]1CC[C@@H]2O1 (stereo partly specified)
2. COC(=O)C1=C(C)NC(C)=C(C(=O)OCCCN2CCC(c3ccccc3)(c3ccccc3)CC2)C1c1cccc([N+](=O)[O-])c1 (stereo unspecified)
3. N=C(N)SCc1ccc2c(c1)Sc1ccccc1O2

## Result
[4.41, 4.58, 6.89]
